biological target: serotonin 1A receptor (Rattus norvegicus, UniProt P19327)
Sequence (P19327 whole entry): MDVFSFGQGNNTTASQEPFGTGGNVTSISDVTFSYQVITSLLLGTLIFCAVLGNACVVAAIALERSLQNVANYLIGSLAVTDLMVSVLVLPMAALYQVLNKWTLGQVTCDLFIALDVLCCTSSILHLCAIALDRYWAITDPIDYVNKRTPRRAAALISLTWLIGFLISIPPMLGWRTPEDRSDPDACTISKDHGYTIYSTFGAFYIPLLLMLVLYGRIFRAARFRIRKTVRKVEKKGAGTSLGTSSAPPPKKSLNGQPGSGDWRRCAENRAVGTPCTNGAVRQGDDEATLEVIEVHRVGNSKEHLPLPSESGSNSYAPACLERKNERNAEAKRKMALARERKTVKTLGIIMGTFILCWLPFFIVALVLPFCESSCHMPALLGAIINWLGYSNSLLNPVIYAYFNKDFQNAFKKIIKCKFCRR
Counter-ions that a name gives are not always drawn.
With a cut-off of 3 nM, any Ki strictly below it is called Satisfied; any Ki meeting it or above is called Not satisfied.

Some entries whose results are on file:
> print(dat)
                                   molecule  classification
1  O=C(CO)NCc1ccc2ccn(C3CCN(CCc4ccc(F)cc4)CC3)c2c1 [Example 364]       Satisfied
2  O=C(Cc1ccc2ccn(C3CCN(CCc4ccc(F)cc4)CC3)c2c1)NCCN1CCOCC1 [Example 313, Oxalate]   Not satisfied
3  CC(=O)NCc1ccc2ccn(C3CCN(CCc4ccc(C(C)O)cc4)CC3)c2c1 (stereo not drawn) [Example 388]       Satisfied
4  Fc1cccc(CCN2CCC(N3CCc4ccccc43)CC2)c1 [Example 8]   Not satisfied
5  c1ccc2c(c1)CCN2C1CCN(CCc2nccs2)CC1 [Example 60]   Not satisfied
6  Fc1ccc(CCN2CCC(N3CCc4ccc(Cc5ccncc5)cc43)CC2)cc1 [Example 179]       Satisfied
7  CS(=O)(=O)NCc1ccc(CCN2CCC(N3CCc4ccccc43)CC2)cc1 [Example 38]   Not satisfied
8  CCN1CCC(N2CC(CCc3cccc(OC)c3)c3ccccc32)CC1 (stereo not drawn) [Example 246]   Not satisfied

[in] is_below(Ki, 3 nM) for Fc1ccc(CCN2CCC(N3CCc4ccncc43)CC2)cc1 [Example 264] ?
[out] Not satisfied

* * *

molecular target: serotonin 1A receptor (Rattus norvegicus, UniProt P19327)
Counter-ions that a name gives are not always drawn.
With a cut-off of 6 nM, any Ki strictly below it is called y; any Ki meeting it or above is called n.

> print(dat)
                                   molecule  classification
1  CC(=O)NCc1ccc2ccn(C3CCN(CCc4ccc(Cl)cc4)CC3)c2c1 [Example 349]               y
2  CCN1CCC(N2CC(c3ccc(OC)cc3)c3ccccc32)CC1 (stereo not drawn) [Example 241]               n
3  CC(O)c1ccc(CCN2CCC(N3CCc4ccccc43)CC2)cc1 (stereo not drawn) [Example 25]               n
4  OCCOc1ccc2ccn(C3CCN(CCc4ccc(F)cc4)CC3)c2c1 [Example 330]               y
5  OC(c1ccc2c(c1)N(C1CCN(CCc3ccc(F)cc3)CC1)CC2)c1ccccn1 (stereo not drawn) [Example 174]               y
6  CCNC(=O)CCc1ccc2ccn(C3CCN(CCc4ccc(F)cc4)CC3)c2c1 [Example 311, Oxalate]               y
7  O=C1NCCN1Cc1ccc2c(c1)N(C1CCN(CCc3ccc(F)cc3)CC1)CC2 [Example 206]               y
8  CN(C)c1ccc2c(c1)N(C1CCN(CCc3ccc(F)cc3)CC1)CC2 [Example 114]               y

Shift focus to the following entry.
[in] is_below(Ki, 6 nM) for COc1ccc2c(c1)N(C1CCN(CCc3ccc(S(N)(=O)=O)cc3)CC1)CC2 [Example 230] ?
[out] n

* * *

target: serotonin 2 receptor (Rattus norvegicus); experiment: Binding test on [3H] ketanserin (serotonin 2 receptor); conditions: [3H] ketanserin 0.3 nM, receptor fraction of rat cerebral cortex; read-out: 5HT2
Sequence (P14842 whole entry): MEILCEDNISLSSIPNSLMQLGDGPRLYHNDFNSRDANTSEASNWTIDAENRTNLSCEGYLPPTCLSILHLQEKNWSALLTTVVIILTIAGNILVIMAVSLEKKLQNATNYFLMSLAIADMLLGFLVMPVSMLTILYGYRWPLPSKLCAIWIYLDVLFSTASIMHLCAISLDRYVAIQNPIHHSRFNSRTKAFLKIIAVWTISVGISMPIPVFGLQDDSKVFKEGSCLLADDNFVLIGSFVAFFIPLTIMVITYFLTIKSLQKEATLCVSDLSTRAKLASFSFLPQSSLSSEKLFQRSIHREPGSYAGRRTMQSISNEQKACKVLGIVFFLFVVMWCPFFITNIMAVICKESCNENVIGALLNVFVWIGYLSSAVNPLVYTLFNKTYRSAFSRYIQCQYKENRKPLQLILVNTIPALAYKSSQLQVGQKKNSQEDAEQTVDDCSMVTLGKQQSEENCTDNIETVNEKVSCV
Counter-ions that a name gives are not always drawn.
assay-endpoint: pKi
One number for each entry, as −log10 of the molar value.

Example cases with answers are listed next.
> print(dat)
                                   compound                              assay.system  endpoint.result
1  COc1ccc2c(c1)C(N1CCN(CCc3ccc(F)cc3)CC1)CCCC2 (stereo not drawn)  serotonin 2 receptor (Rattus norvegicus)             6.82
2  CCS(=O)(=O)Nc1ccc2c(c1)N(C1CCN(CCc3ccc(F)cc3)CC1)CC2  serotonin 2 receptor (Rattus norvegicus)             7.97
3  CCNC(=O)Cc1ccc2ccn(C3CCN(CCc4ccccc4F)CC3)c2c1  serotonin 2 receptor (Rattus norvegicus)             8.79
4  O=C1CCCN1Cc1ccc2ccn(C3CCN(CCc4ccc(F)cc4)CC3)c2c1  serotonin 2 receptor (Rattus norvegicus)             7.85
5  CNc1ccc2c(c1)N(C1CCN(CCc3ccc(F)cc3)CC1)CC2  serotonin 2 receptor (Rattus norvegicus)             7.13
6  CCNC(=O)Cc1ccc2c(c1)N(C1CCN(CCc3ccc(F)cc3)CC1)CC2  serotonin 2 receptor (Rattus norvegicus)             9.30
7  CCCNC(=O)Cc1ccc2c(c1)N(C1CCN(CCc3ccc(F)cc3)CC1)CC2  serotonin 2 receptor (Rattus norvegicus)             9.80
8  Cn1cccc1-c1ccc2c(c1)N(C1CCN(CCc3ccc(F)cc3)CC1)CC2  serotonin 2 receptor (Rattus norvegicus)             7.15

Below is a list of compounds. For each, state its recorded pKi.
1. CS(=O)(=O)NCc1ccc2ccn(C3CCN(CCc4ccc(F)cc4)CC3)c2c1
2. O=C(Cc1ccc2ccn(C3CCN(CCc4ccc(F)cc4)CC3)c2c1)NCc1ccccn1 [Example 341, Oxalate]
3. COc1ccc2c(c1)CCN2C1CCN(CCc2ccc(F)cc2)CC1
4. O=C(CCCl)NCc1ccc2ccn(C3CCN(CCc4ccc(F)cc4)CC3)c2c1
5. O=C(Cc1ccc2ccn(C3CCN(CCc4ccc(F)cc4)CC3)c2c1)NCc1ccncc1
6. CCCNC(=O)Cc1ccc2ccn(C3CCN(CCc4ccc(F)cc4)CC3)c2c1

[out]
1. 7.52
2. 9.17
3. 8.06
4. 8.75
5. 8.96
6. 8.38
